Sourced from paper PMC11879280

Entries and their HD10 (10% haemolytic dose)
- System: horse red blood cells (RBCs)
- run-description: Haemolysis assay
- Assay type: cell-based
Square brackets hold non-standard residues; d marks the D form. Peptide text beside a SMILES is read from it. Nspe(4-Br) = C[C@H](NCC(=O)O)c1ccc(Br)cc1; Nspe = C[C@H](NCC(=O)O)c1ccccc1; Nlys = NCCCCNCC(=O)O

- molecule: "C[C@@H](c1ccc(Br)cc1)N(CC(N)=O)C(=O)CN(C(=O)CN(CCCCN)C(=O)CN(C(=O)CN(C(=O)CNCCCCN)[C@@H](C)c1ccccc1)[C@@H](C)c1ccc(Br)cc1)[C@@H](C)c1ccccc1 [TM2] (H-[Nlys][Nspe][Nspe(4-Br)][Nlys][Nspe][Nspe(4-Br)]-NH2)"
  HD10 (10% haemolytic dose), µmol/L: 18.6
- molecule: "C[C@@H](c1ccc(Br)cc1)N(CC(=O)N(CCCCN)CC(=O)N(CC(=O)N(CC(=O)N(CCCCN)CC(N)=O)[C@@H](C)c1ccc(Br)cc1)[C@@H](C)c1ccc(Br)cc1)C(=O)CN(C(=O)CNCCCCN)[C@@H](C)c1ccc(Br)cc1 [TM14] (H-[Nlys][Nspe(4-Br)][Nspe(4-Br)][Nlys][Nspe(4-Br)][Nspe(4-Br)][Nlys]-NH2)"
  HD10 (10% haemolytic dose), µmol/L: 7.0

---

- System: ESKAPEE pathogens (all bacteria)
- run-description: Geometric mean MIC, therapeutic index and selectivity ratio, all bacteria
- Format: cell-based
- measurement-setup: across the 23 ESKAPEE strains; value in brackets
Square brackets hold non-standard residues; d marks the D form. Peptide text beside a SMILES is read from it. Nspe(4-Br) = C[C@H](NCC(=O)O)c1ccc(Br)cc1; N(tridecyl)Gly = CCCCCCCCCCCCCNCC(=O)O; Nspe = C[C@H](NCC(=O)O)c1ccccc1; NDecylGly = CCCCCCCCCCNCC(=O)O; Nlys = NCCCCNCC(=O)O

- compound: "C[C@@H](c1ccc(Br)cc1)N(CC(N)=O)C(=O)CN(C(=O)CN(CCCCN)C(=O)CN(C(=O)CN(C(=O)CNCCCCN)[C@@H](C)c1ccccc1)[C@@H](C)c1ccc(Br)cc1)[C@@H](C)c1ccccc1 [TM2] (H-[Nlys][Nspe][Nspe(4-Br)][Nlys][Nspe][Nspe(4-Br)]-NH2)"
  Geometric mean MIC, all bacteria, µM: 24.2
- compound: "C[C@@H](c1ccccc1)N(CC(N)=O)C(=O)CN(C(=O)CN(CCCCN)C(=O)CN(C(=O)CN(C(=O)CN(CCCCN)C(=O)CN(C(=O)CN(C(=O)CN(CCCCN)C(=O)CN(C(=O)CN(C(=O)CNCCCCN)[C@@H](C)c1ccccc1)[C@@H](C)c1ccccc1)[C@@H](C)c1ccccc1)[C@@H](C)c1ccccc1)[C@@H](C)c1ccccc1)[C@@H](C)c1ccccc1)[C@@H](C)c1ccccc1 [TM1] (H-[Nlys][Nspe][Nspe][Nlys][Nspe][Nspe][Nlys][Nspe][Nspe][Nlys][Nspe][Nspe]-NH2)"
  Geometric mean MIC, all bacteria, µM: 7.2
- compound: "C[C@@H](c1ccccc1)N(CC(N)=O)C(=O)CN(CCCCN)C(=O)CN(C(=O)CN(C(=O)CN(CCCCN)C(=O)CN(C(=O)CN(C(=O)CN(CCCCN)C(=O)CN(C(=O)CN(C(=O)CNCCCCN)[C@@H](C)c1ccccc1)[C@@H](C)c1ccccc1)[C@@H](C)c1ccccc1)[C@@H](C)c1ccccc1)[C@@H](C)c1ccccc1)[C@@H](C)c1ccccc1 [TM6] (H-[Nlys][Nspe][Nspe][Nlys][Nspe][Nspe][Nlys][Nspe][Nspe][Nlys][Nspe]-NH2)"
  Geometric mean MIC, all bacteria, µM: 10.6
- compound: "C[C@@H](c1ccc(Br)cc1)N(CC(=O)N(CCCCN)CC(=O)N(CC(=O)N(CC(=O)N(CCCCN)CC(N)=O)[C@@H](C)c1ccc(Br)cc1)[C@@H](C)c1ccccc1)C(=O)CN(C(=O)CNCCCCN)[C@@H](C)c1ccccc1 [TM12] (H-[Nlys][Nspe][Nspe(4-Br)][Nlys][Nspe][Nspe(4-Br)][Nlys]-NH2)"
  Geometric mean MIC, all bacteria, µM: 26.0
- compound: "CCCCCCCCCCNCC(=O)N(CCCCN)CC(=O)N(CC(=O)N(CC(=O)N(CCCCN)CC(=O)N(CC(=O)N(CC(N)=O)[C@@H](C)c1ccccc1)[C@@H](C)c1ccccc1)[C@@H](C)c1ccccc1)[C@@H](C)c1ccccc1 [TM8] (H-[NDecylGly][Nlys][Nspe][Nspe][Nlys][Nspe][Nspe]-NH2)"
  Geometric mean MIC, all bacteria, µM: 6.6
- compound: "C[C@@H](c1ccc(Br)cc1)N(CC(=O)N(CCCCN)CC(=O)N(CC(=O)N(CC(=O)N(CCCCN)CC(N)=O)[C@@H](C)c1ccc(Br)cc1)[C@@H](C)c1ccc(Br)cc1)C(=O)CN(C(=O)CNCCCCN)[C@@H](C)c1ccc(Br)cc1 [TM14] (H-[Nlys][Nspe(4-Br)][Nspe(4-Br)][Nlys][Nspe(4-Br)][Nspe(4-Br)][Nlys]-NH2)"
  Geometric mean MIC, all bacteria, µM: 14.6
- compound: "CCCCCCCCCCCCCNCC(=O)N(CCCCN)CC(=O)N(CC(=O)N(CC(=O)N(CCCCN)CC(=O)N(CCCCN)CC(N)=O)[C@@H](C)c1ccccc1)[C@@H](C)c1ccccc1 [TM15] (H-[N(tridecyl)Gly][Nlys][Nspe][Nspe][Nlys][Nlys]-NH2)"
  Geometric mean MIC, all bacteria, µM: 33.4

---

Consider the following molecules and their measured HD10 (10% haemolytic dose) readings.
- System: horse red blood cells (RBCs)
- run-description: Haemolysis assay
- Type: cell-based
Square brackets hold non-standard residues; d marks the D form. Peptide text beside a SMILES is read from it. Nspe(4-Br) = C[C@H](NCC(=O)O)c1ccc(Br)cc1; N(tridecyl)Gly = CCCCCCCCCCCCCNCC(=O)O; Nspe = C[C@H](NCC(=O)O)c1ccccc1; NDecylGly = CCCCCCCCCCNCC(=O)O; Nlys = NCCCCNCC(=O)O

- molecule: "CCCCCCCCCCCCCNCC(=O)N(CCCCN)CC(=O)N(CC(=O)N(CC(=O)N(CCCCN)CC(=O)N(CCCCN)CC(N)=O)[C@@H](C)c1ccccc1)[C@@H](C)c1ccccc1 [TM15] (H-[N(tridecyl)Gly][Nlys][Nspe][Nspe][Nlys][Nlys]-NH2)"
  HD10 (10% haemolytic dose): "24.5 µmol/L"
- molecule: "CCCCCCCCCCNCC(=O)N(CCCCN)CC(=O)N(CC(=O)N(CC(=O)N(CCCCN)CC(=O)N(CC(=O)N(CC(N)=O)[C@@H](C)c1ccccc1)[C@@H](C)c1ccccc1)[C@@H](C)c1ccccc1)[C@@H](C)c1ccccc1 [TM8] (H-[NDecylGly][Nlys][Nspe][Nspe][Nlys][Nspe][Nspe]-NH2)"
  HD10 (10% haemolytic dose): "7.2 µmol/L"
- molecule: "C[C@@H](c1ccc(Br)cc1)N(CC(=O)N(CCCCN)CC(=O)N(CC(=O)N(CC(=O)N(CCCCN)CC(N)=O)[C@@H](C)c1ccc(Br)cc1)[C@@H](C)c1ccccc1)C(=O)CN(C(=O)CNCCCCN)[C@@H](C)c1ccccc1 [TM12] (H-[Nlys][Nspe][Nspe(4-Br)][Nlys][Nspe][Nspe(4-Br)][Nlys]-NH2)"
  HD10 (10% haemolytic dose): "66.4 µmol/L"

---

- Test system: horse red blood cells (RBCs)
- run-description: Haemolysis assay
- Format: cell-based
Square brackets hold non-standard residues; d marks the D form. Peptide text beside a SMILES is read from it. Nspe(4-Br) = C[C@H](NCC(=O)O)c1ccc(Br)cc1; N(tridecyl)Gly = CCCCCCCCCCCCCNCC(=O)O; Nspe = C[C@H](NCC(=O)O)c1ccccc1; NDecylGly = CCCCCCCCCCNCC(=O)O; Nlys = NCCCCNCC(=O)O

- compound: "CCCCCCCCCCCCCNCC(=O)N(CCCCN)CC(=O)N(CC(=O)N(CC(=O)N(CCCCN)CC(=O)N(CCCCN)CC(N)=O)[C@@H](C)c1ccccc1)[C@@H](C)c1ccccc1 [TM15] (H-[N(tridecyl)Gly][Nlys][Nspe][Nspe][Nlys][Nlys]-NH2)"
  HD50 (50% haemolytic dose): "89.7 µmol/L"
- compound: "C[C@@H](c1ccc(Br)cc1)N(CC(N)=O)C(=O)CN(C(=O)CN(CCCCN)C(=O)CN(C(=O)CN(C(=O)CNCCCCN)[C@@H](C)c1ccccc1)[C@@H](C)c1ccc(Br)cc1)[C@@H](C)c1ccccc1 [TM2] (H-[Nlys][Nspe][Nspe(4-Br)][Nlys][Nspe][Nspe(4-Br)]-NH2)"
  HD50 (50% haemolytic dose): "59.5 µmol/L"
- compound: "C[C@@H](c1ccc(Br)cc1)N(CC(=O)N(CCCCN)CC(=O)N(CC(=O)N(CC(=O)N(CCCCN)CC(N)=O)[C@@H](C)c1ccc(Br)cc1)[C@@H](C)c1ccccc1)C(=O)CN(C(=O)CNCCCCN)[C@@H](C)c1ccccc1 [TM12] (H-[Nlys][Nspe][Nspe(4-Br)][Nlys][Nspe][Nspe(4-Br)][Nlys]-NH2)"
  HD50 (50% haemolytic dose): "212.6 µmol/L"
- compound: "CCCCCCCCCCNCC(=O)N(CCCCN)CC(=O)N(CC(=O)N(CC(=O)N(CCCCN)CC(=O)N(CC(=O)N(CC(N)=O)[C@@H](C)c1ccccc1)[C@@H](C)c1ccccc1)[C@@H](C)c1ccccc1)[C@@H](C)c1ccccc1 [TM8] (H-[NDecylGly][Nlys][Nspe][Nspe][Nlys][Nspe][Nspe]-NH2)"
  HD50 (50% haemolytic dose): "24.4 µmol/L"
- compound: "C[C@@H](c1ccc(Br)cc1)N(CC(=O)N(CCCCN)CC(=O)N(CC(=O)N(CC(=O)N(CCCCN)CC(N)=O)[C@@H](C)c1ccc(Br)cc1)[C@@H](C)c1ccc(Br)cc1)C(=O)CN(C(=O)CNCCCCN)[C@@H](C)c1ccc(Br)cc1 [TM14] (H-[Nlys][Nspe(4-Br)][Nspe(4-Br)][Nlys][Nspe(4-Br)][Nspe(4-Br)][Nlys]-NH2)"
  HD50 (50% haemolytic dose): "17.6 µmol/L"
